- measured-target: UniProt Q07889
- Sequence (Q07889 564-1049): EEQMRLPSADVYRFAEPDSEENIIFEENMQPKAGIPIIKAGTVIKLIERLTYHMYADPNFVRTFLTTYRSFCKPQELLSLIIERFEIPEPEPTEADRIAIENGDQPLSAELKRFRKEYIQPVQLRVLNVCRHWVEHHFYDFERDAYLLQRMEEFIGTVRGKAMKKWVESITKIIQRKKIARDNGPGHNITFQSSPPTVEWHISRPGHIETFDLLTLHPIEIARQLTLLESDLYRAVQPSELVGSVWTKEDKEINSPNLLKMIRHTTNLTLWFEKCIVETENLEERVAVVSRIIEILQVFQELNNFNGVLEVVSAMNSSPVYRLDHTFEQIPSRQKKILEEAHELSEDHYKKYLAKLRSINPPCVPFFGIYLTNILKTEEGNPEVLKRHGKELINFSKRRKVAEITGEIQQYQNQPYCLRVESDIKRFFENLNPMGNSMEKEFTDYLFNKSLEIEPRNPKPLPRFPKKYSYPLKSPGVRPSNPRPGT
- assay-summary: Ras-SOS interaction assay (HTRF)
- Format: biochemical
- condition-set: K-RasG13D, read-out: IC50 value against SOS1
pIC50: −log10 of the molar value.
property-name: pIC50

Please tell me: pIC50 of `COc1nc2nc(C)nc(N[C@H](C)c3cccc(C(F)(F)F)c3F)c2cc1N1CCN(C2CCOCC2)CC1` , system UniProt Q07889? > 7.30

Please tell me: pIC50 of `COc1nc2nc(C)nc(N[C@H](C)c3cccc(C(F)(F)F)c3F)c2cc1C1CCS(=O)(=O)CC1` , system UniProt Q07889? > 7.30

Please tell me: pIC50 of COc1nc2ncnc(N[C@H](C)c3cccc(C(F)(F)C4CCC(N(C)C)CC4)c3F)c2cc1C1CCS(=O)(=O)CC1 (stereo partly drawn) , system UniProt Q07889? > 7.30
